# ASSAYED TARGET: D(2) dopamine receptor (Homo sapiens) (UniProt P14416)
# Sequence (P14416 whole entry, looked up): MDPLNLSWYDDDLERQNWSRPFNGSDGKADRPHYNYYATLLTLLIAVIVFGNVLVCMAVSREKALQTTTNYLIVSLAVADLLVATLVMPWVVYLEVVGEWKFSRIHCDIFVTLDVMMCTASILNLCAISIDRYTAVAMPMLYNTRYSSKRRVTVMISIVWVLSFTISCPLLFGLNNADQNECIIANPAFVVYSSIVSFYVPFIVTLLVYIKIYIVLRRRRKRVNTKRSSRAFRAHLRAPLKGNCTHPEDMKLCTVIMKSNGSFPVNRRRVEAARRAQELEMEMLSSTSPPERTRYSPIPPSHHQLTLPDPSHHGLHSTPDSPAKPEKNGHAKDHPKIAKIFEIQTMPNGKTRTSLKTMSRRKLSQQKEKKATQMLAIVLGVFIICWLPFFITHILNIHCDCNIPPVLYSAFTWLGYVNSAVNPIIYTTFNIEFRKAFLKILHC
# TEST: HTS Assay for Allosteric Agonists of the Human D2 Dopamine Receptor: Primary Screen for Agonists; note: 0% is about no effect
# STATED CONDITIONS: HEK293 T-REx D2 cells, calcium flux agonist mode; at 2 µM; stronger effect = higher value
The whole screen tested about 340,000 compounds, of which about 1,800 (0.53%) were called active. This excerpt belongs to a sample that is enriched for actives.
Kindly supply the reported activation values for the records listed here.
# number only, unit % dropped from output

q: Quote activation with test system D(2) dopamine receptor (Homo sapiens) (UniProt P14416) for Cc1cccc(Cn2cccc(C(=O)Nc3ccc4c(c3)OCCO4)c2=O)c1
a: 0.0946

q: Quote activation with test system D(2) dopamine receptor (Homo sapiens) (UniProt P14416) for Cc1nnc(NC(=O)c2cccn(Cc3cccc(F)c3)c2=O)s1
a: 0.455

q: Quote activation with test system D(2) dopamine receptor (Homo sapiens) (UniProt P14416) for COC(=O)C1=C(c2ccc3ccccc3c2)C[C@@H]2CC[C@H]1N2C(=O)NCCO
a: -0.422
